Test system: S. hemolyticus AVHAH 88-3
Assay: MIC, agar dilution
Assay type: cell-based
Conditions: Streptococcus pyogenes, AVHAH883, 18 h
Counter-ions that a name gives are not always drawn.
Each entry below lists one item and its recorded MIC value.
Give the number; µg/mL is assumed, so skip it.

| Molecule | Endpoint Name | Numeric Value |
| --- | --- | --- |
| CCCCCNCC(=O)Nc1ccc2c(c1O)C(=O)C1=C(O)[C@]3(O)C(=O)C(C(N)=O)=C(O)[C@@H](N(C)C)C3CC1C2 (stereo partly drawn) [K, monohydrochloride] | MIC | 2 |

Ask: For the molecule CC1CCN(CC(=O)Nc2ccc3c(c2O)C(=O)C2=C(O)[C@]4(O)C(=O)C(C(N)=O)=C(O)[C@@H](N(C)C)C4CC2C3)CC1 (stereo partly drawn) [A, dihydrochloride] , report MIC.
Reply: 2

Ask: Let me know recorded MIC for CCCCCCNCC(=O)Nc1ccc2c(c1O)C(=O)C1=C(O)[C@]3(O)C(=O)C(C(N)=O)=C(O)[C@@H](N(C)C)C3CC1C2 (stereo partly drawn) [G, dihydrochloride] , thanks.
Reply: 2

----------
// MIC lookup, one value per entry
Test system: Enterococcus 12201
Assay: MIC, agar dilution
Format: cell-based
Conditions: Enterococcus, 12201, 18 h
Structures can show the parent of a compound that is named as a salt.
Give your result in µg/mL as a bare value.

| Compound | Numeric Value |
| --- | --- |
| CN(C)[C@@H]1C(O)=C(C(N)=O)C(=O)[C@@]2(O)C(O)=C3C(=O)c4c(ccc(NC(=O)CBr)c4O)CC3CC12 (stereo partly shown) [R, monohydrochloride] | 4 |
| CN(C)[C@@H]1C(O)=C(C(N)=O)C(=O)[C@@]2(O)C(O)=C3C(=O)c4c(ccc(NC(=O)CNCc5ccccc5)c4O)CC3CC12 (stereo partly shown) [J, dihydrochloride] | 2 |
| CNCC(=O)Nc1ccc2c(c1O)C(=O)C1=C(O)[C@]3(O)C(=O)C(C(N)=O)=C(O)[C@@H](N(C)C)C3CC1C2 (stereo partly shown) [F, dihydrochloride] | 0.5 |
| CN(C)[C@@H]1C(O)=C(C(N)=O)C(=O)[C@@]2(O)C(O)=C3C(=O)c4c(ccc(NC(=O)CNCC5CC5)c4O)CC3CC12 (stereo partly shown) [Q, dihydrochloride] | 0.5 |

Ask: Return MIC (reported value) for this compound: CC(C(=O)Nc1ccc2c(c1O)C(=O)C1=C(O)[C@]3(O)C(=O)C(C(N)=O)=C(O)[C@@H](N(C)C)C3CC1C2)N(C)C (stereo partly shown) [B, dihydrochloride]
Reply: 0.25

Ask: Annotate the compound CN(C)[C@@H]1C(O)=C(C(N)=O)C(=O)[C@@]2(O)C(O)=C3C(=O)c4c(ccc(NC(=O)CNCc5ccccn5)c4O)CC3CC12 (stereo partly shown) [N, dihydrochloride] with its measured MIC.
Reply: 8

Ask: Identify measured MIC associated with CC(Br)C(=O)Nc1ccc2c(c1O)C(=O)C1=C(O)[C@]3(O)C(=O)C(C(N)=O)=C(O)[C@@H](N(C)C)C3CC1C2 (stereo partly shown) [S, dihydrochloride]
Reply: 32

Ask: Complete the entry with MIC for CN(C)[C@@H]1C(O)=C(C(N)=O)C(=O)[C@@]2(O)C(O)=C3C(=O)c4c(ccc(NC(=O)CN5CCCCC5)c4O)CC3CC12 (stereo partly shown) [I, dihydrochloride]
Reply: 0.25

Ask: Return MIC for the following compound: `CN(C)[C@@H]1C(O)=C(C(N)=O)C(=O)[C@@]2(O)C(O)=C3C(=O)c4c(O)cccc4[C@@](C)(O)[C@H]3C[C@@H]12`
Reply: 32

Ask: Complete the entry with MIC for CC(C)CNCC(=O)Nc1ccc2c(c1O)C(=O)C1=C(O)[C@]3(O)C(=O)C(C(N)=O)=C(O)[C@@H](N(C)C)C3CC1C2 (stereo partly shown) [M, dihydrochloride]
Reply: 0.5
